- Test system: K-562 leukemia
- testName: NCI-60 one-dose screen, 48 h
- conditionSet: 10 µM unless noted
About 83,000 compounds went through this panel and 20% of them were active in at least one assay; those are over-represented in the sample as a whole. Calls of active or inactive are those of the source. The calls were made as follows: active = growth percent below 10; inactive = the rest.
Reply using exactly one outcome from active, inactive

Recorded results for 4 compounds are shown here.
CCOC(=O)c1cnc2c(N=Nc3ccc(OC)cc3)c(N)nn2c1N	inactive
Cc1ccc(C2CC(c3nc(-c4ccc(Cl)cc4)oc3C)=NN2C(=O)c2ccncc2)cc1 (configuration not stated)	inactive
Cc1nnc(-c2ccc3c(c2)nc(/C=C/c2ccccc2)n3C2CCCCC2)o1	inactive
CCOC(=O)C(=CNc1cnc(Nc2ccc(N3CCOCC3)cc2)nc1Oc1ccc(OC)cc1)C(=O)OCC	inactive

Query :: Per the records of this test, what outcome belongs to `O=C1/C(=C/c2ccc(F)cc2)CN(C(=O)C(Cl)Cl)C/C1=C\c1ccc(F)cc1` ?
Result :: active

Query :: Per the records of this test, what outcome belongs to `Cc1ccc(C(=O)c2ccc(CC(=O)N=Nc3c(O)[nH]c4ccc(Br)cc34)n2C)cc1` ?
Result :: inactive

Query :: Per the records of this test, what outcome belongs to `COc1ccc2cc(-c3ccnc4c(N=Nc5ccc(Cl)cc5)c(N)nn34)ccc2c1` ?
Result :: inactive

Query :: Per the records of this test, what outcome belongs to `CCCCNc1nnc2n(Cc3ccccc3)c(=O)c3c4c(sc3n12)CCCC4` ?
Result :: inactive

Query :: Per the records of this test, what outcome belongs to `CCNc1ccc(-c2nc3ccccc3n3cccc23)cc1` ?
Result :: inactive

Query :: Per the records of this test, what outcome belongs to `O=C(N/N=C\c1ccccc1S(=O)(=O)O)N/N=C/c1ccccc1S(=O)(=O)O` ?
Result :: inactive

Query :: Per the records of this test, what outcome belongs to `O=C(Nc1ncccc1OCc1ccccc1)NC1CCCCCC1` ?
Result :: inactive

Query :: Per the records of this test, what outcome belongs to `N[C@H]1CCC[C@@H]1NCCCCN1C(=O)c2cccc3cc([N+](=O)[O-])cc(c23)C1=O` ?
Result :: inactive

Query :: Per the records of this test, what outcome belongs to `CNC(=O)c1ccccc1Nc1nc(Nc2cc(OC)c(OC)c(OC)c2)ncc1Br` ?
Result :: active

Query :: Per the records of this test, what outcome belongs to `COc1ccc(N2CCN(C(=O)c3sc4nc(C)c(Br)c(C)c4c3N)CC2)cc1` ?
Result :: inactive

Query :: Per the records of this test, what outcome belongs to `Cc1c(Cl)cccc1C(=O)Nc1nc2c(s1)CN(C(=O)c1ccc(C(F)(F)F)cc1)CC2` ?
Result :: inactive

Query :: Per the records of this test, what outcome belongs to `COc1ccc2c(c1)c(-c1nc(-c3c[nH]c4ncccc34)cs1)cn2CCO` ?
Result :: inactive

Query :: Per the records of this test, what outcome belongs to `CCNC(=O)Oc1ccc(/C(=C(/CC)Cc2ccccc2)c2ccc(OCCN3CCCC3)cc2)cc1` ?
Result :: inactive

Query :: Per the records of this test, what outcome belongs to `C=C1C(=O)O[C@H]2[C@H]1CC/C(COC(=O)c1ccc(C(=O)O)s1)=C\CC[C@@]1(C)O[C@@H]21` ?
Result :: active

Query :: Per the records of this test, what outcome belongs to `COC(=O)CC[C@@H]1O[C@@H](c2ccc(F)cc2)[C@@H](O)[C@H]1O` ?
Result :: inactive

Query :: Per the records of this test, what outcome belongs to `COC(=O)c1c2c(c(C)[n+]([O-])c1C)C(=O)C(NCc1cccc(Cl)c1)=CC2=O` ?
Result :: active

Query :: Per the records of this test, what outcome belongs to `O=C(O)c1ccc(-c2ccc(/C=N/Nc3nc(Nc4ccccc4)nc(N4CCCCC4)n3)o2)cc1` ?
Result :: inactive

Query :: Per the records of this test, what outcome belongs to `O=C(CI)NC(=O)NC(=O)NCc1ccccc1` ?
Result :: active

Query :: Per the records of this test, what outcome belongs to `CCn1c(-c2cc3c([nH]c4ccccc43)c(-c3cccc(O)c3)n2)n[nH]c1=S` ?
Result :: inactive

Query :: Per the records of this test, what outcome belongs to `CC(C)(C)n1cc(-c2ccnc(NCCCNS(=O)(=O)c3ccc(C(F)(F)F)cc3)c2)c(-c2cccc(F)c2)n1` ?
Result :: inactive

Query :: Per the records of this test, what outcome belongs to `COc1ccc(-c2nn(-c3ccccc3)cc2/C=C/C(=O)NNC(=O)Nc2ccc(C)cc2)cc1` ?
Result :: inactive

Query :: Per the records of this test, what outcome belongs to `COc1cc(NC(=O)c2cncnc2Nc2ccc3c(ccn3Cc3ccccn3)c2)cc(OC)c1` ?
Result :: inactive

Query :: Per the records of this test, what outcome belongs to `O=[N+]([O-])c1cc(NS(=O)(=O)c2ccccc2)ccc1NS(=O)(=O)c1ccccc1` ?
Result :: inactive
